Some compounds, each annotated with its measured visual damage.
- System: Lolium multiflorum
- method_summary: Further glasshouse test versus other ACCase-inhibiting herbicides, Table B2-1
- Type: in vivo
- experimental_conditions: population LM-NTSR-1 (non-target-site resistance); 30 g/ha; 21 days after application
measured_attribute: visual damage (%)

CCCC(=NOCC)C1=C(O)CC(C2CCCSC2)CC1=O (centres unmarked) [Cycloxydim, cycloxydim]: 0
CC#Cc1ccc(C2=C(OC(=O)OC)C3CCC(C3)C2=O)c(OC)c1 (centres unmarked) [Compound Ic]: 100
C#CCOC(=O)[C@@H](C)Oc1ccc(Oc2ncc(Cl)cc2F)cc1 [Clodinafop-propargyl, clodinafop-propargyl]: 0
CCSC(C)CC1CC(=O)C(/C(CC)=N/OC/C=C/Cl)=C(O)C1 (centres unmarked) [Clethodim, clethodim]: 97
CCc1cc(C)cc(CC)c1-c1c(OC(=O)C(C)(C)C)n2n(c1=O)CCOCC2 [Pinoxaden, pinoxaden]: 85

---

- System: Lolium multiflorum
- method_summary: Further glasshouse test versus other ACCase-inhibiting herbicides, Table B2-1
- Format: in vivo
- experimental_conditions: population LM-NTSR-2 (non-target-site resistance); 15 g/ha; 21 days after application
measured_attribute: visual damage (%)

CCc1cc(C)cc(CC)c1-c1c(OC(=O)C(C)(C)C)n2n(c1=O)CCOCC2: 0
CCSC(C)CC1CC(=O)C(/C(CC)=N/OC/C=C/Cl)=C(O)C1 (centres unmarked): 3
CC#Cc1ccc(C2=C(OC(=O)OC)C3CCC(C3)C2=O)c(OC)c1 (centres unmarked): 48
CCCC(=NOCC)C1=C(O)CC(C2CCCSC2)CC1=O (centres unmarked): 0
C#CCOC(=O)[C@@H](C)Oc1ccc(Oc2ncc(Cl)cc2F)cc1: 0

---

Some compounds, each annotated with its measured visual damage.
- Tested on: Lolium multiflorum
- method_summary: Further glasshouse test versus other ACCase-inhibiting herbicides, Table B2-1
- Assay type: in vivo
- experimental_conditions: population LM-NTSR-2 (non-target-site resistance); 60 g/ha; 21 days after application
measured_attribute: visual damage (%)

CCCC(=NOCC)C1=C(O)CC(C2CCCSC2)CC1=O (centres unmarked) [Cycloxydim, cycloxydim]: 0
CC#Cc1ccc(C2=C(OC(=O)OC)C3CCC(C3)C2=O)c(OC)c1 (centres unmarked) [Compound Ic]: 87
C#CCOC(=O)[C@@H](C)Oc1ccc(Oc2ncc(Cl)cc2F)cc1 [Clodinafop-propargyl, clodinafop-propargyl]: 0
CCSC(C)CC1CC(=O)C(/C(CC)=N/OC/C=C/Cl)=C(O)C1 (centres unmarked) [Clethodim, clethodim]: 70
CCc1cc(C)cc(CC)c1-c1c(OC(=O)C(C)(C)C)n2n(c1=O)CCOCC2 [Pinoxaden, pinoxaden]: 0

---

- Tested on: Lolium multiflorum
- method_summary: Further glasshouse test versus other ACCase-inhibiting herbicides, Table B2-1
- Format: in vivo
- experimental_conditions: biotype I1781L; 240 g/ha; 21 days after application
measured_attribute: visual damage (%)

C#CCOC(=O)[C@@H](C)Oc1ccc(Oc2ncc(Cl)cc2F)cc1: 33
CC#Cc1ccc(C2=C(OC(=O)OC)C3CCC(C3)C2=O)c(OC)c1 (centres unmarked): 100
CCSC(C)CC1CC(=O)C(/C(CC)=N/OC/C=C/Cl)=C(O)C1 (centres unmarked): 100
CCCC(=NOCC)C1=C(O)CC(C2CCCSC2)CC1=O (centres unmarked): 13
CCc1cc(C)cc(CC)c1-c1c(OC(=O)C(C)(C)C)n2n(c1=O)CCOCC2: 98

---

- Tested on: Lolium multiflorum
- method_summary: Further glasshouse test versus other ACCase-inhibiting herbicides, Table B2-1
- Format: in vivo
- experimental_conditions: biotype W1999S; 60 g/ha; 21 days after application
measured_attribute: visual damage (%)

CCc1cc(C)cc(CC)c1-c1c(OC(=O)C(C)(C)C)n2n(c1=O)CCOCC2 [Pinoxaden, pinoxaden]: 0
C#CCOC(=O)[C@@H](C)Oc1ccc(Oc2ncc(Cl)cc2F)cc1 [Clodinafop-propargyl, clodinafop-propargyl]: 0
CC#Cc1ccc(C2=C(OC(=O)OC)C3CCC(C3)C2=O)c(OC)c1 (centres unmarked) [Compound Ic]: 100
CCSC(C)CC1CC(=O)C(/C(CC)=N/OC/C=C/Cl)=C(O)C1 (centres unmarked) [Clethodim, clethodim]: 100
CCCC(=NOCC)C1=C(O)CC(C2CCCSC2)CC1=O (centres unmarked) [Cycloxydim, cycloxydim]: 0

---

- Test system: Lolium multiflorum
- method_summary: Further glasshouse test versus other ACCase-inhibiting herbicides, Table B2-1
- Format: in vivo
- experimental_conditions: biotype C2088R; 30 g/ha; 21 days after application
measured_attribute: visual damage (%)

C#CCOC(=O)[C@@H](C)Oc1ccc(Oc2ncc(Cl)cc2F)cc1: 0
CCSC(C)CC1CC(=O)C(/C(CC)=N/OC/C=C/Cl)=C(O)C1 (centres unmarked): 13
CCCC(=NOCC)C1=C(O)CC(C2CCCSC2)CC1=O (centres unmarked): 0
CCc1cc(C)cc(CC)c1-c1c(OC(=O)C(C)(C)C)n2n(c1=O)CCOCC2: 0
CC#Cc1ccc(C2=C(OC(=O)OC)C3CCC(C3)C2=O)c(OC)c1 (centres unmarked): 100

---

- Test system: Lolium multiflorum
- method_summary: Further glasshouse test versus other ACCase-inhibiting herbicides, Table B2-1
- Assay type: in vivo
- experimental_conditions: biotype Sensitive; 15 g/ha; 21 days after application
measured_attribute: visual damage

CC#Cc1ccc(C2=C(OC(=O)OC)C3CCC(C3)C2=O)c(OC)c1 (centres unmarked): 100%
CCCC(=NOCC)C1=C(O)CC(C2CCCSC2)CC1=O (centres unmarked): 0%
CCSC(C)CC1CC(=O)C(/C(CC)=N/OC/C=C/Cl)=C(O)C1 (centres unmarked): 100%
CCc1cc(C)cc(CC)c1-c1c(OC(=O)C(C)(C)C)n2n(c1=O)CCOCC2: 100%
C#CCOC(=O)[C@@H](C)Oc1ccc(Oc2ncc(Cl)cc2F)cc1: 67%

---

- Test system: Lolium multiflorum
- method_summary: Further glasshouse test versus other ACCase-inhibiting herbicides, Table B2-1
- Type: in vivo
- experimental_conditions: population LM-NTSR-1 (non-target-site resistance); 60 g/ha; 21 days after application
measured_attribute: visual damage (%)

CCc1cc(C)cc(CC)c1-c1c(OC(=O)C(C)(C)C)n2n(c1=O)CCOCC2 [Pinoxaden, pinoxaden]: 97
CCSC(C)CC1CC(=O)C(/C(CC)=N/OC/C=C/Cl)=C(O)C1 (centres unmarked) [Clethodim, clethodim]: 100
CCCC(=NOCC)C1=C(O)CC(C2CCCSC2)CC1=O (centres unmarked) [Cycloxydim, cycloxydim]: 0
CC#Cc1ccc(C2=C(OC(=O)OC)C3CCC(C3)C2=O)c(OC)c1 (centres unmarked) [Compound Ic]: 100
C#CCOC(=O)[C@@H](C)Oc1ccc(Oc2ncc(Cl)cc2F)cc1 [Clodinafop-propargyl, clodinafop-propargyl]: 0

---

- System: Lolium multiflorum
- method_summary: Further glasshouse test versus other ACCase-inhibiting herbicides, Table B2-1
- Assay type: in vivo
- experimental_conditions: biotype D2078G; 15 g/ha; 21 days after application
measured_attribute: visual damage

C#CCOC(=O)[C@@H](C)Oc1ccc(Oc2ncc(Cl)cc2F)cc1 [Clodinafop-propargyl, clodinafop-propargyl]: 0%
CCSC(C)CC1CC(=O)C(/C(CC)=N/OC/C=C/Cl)=C(O)C1 (centres unmarked) [Clethodim, clethodim]: 10%
CCc1cc(C)cc(CC)c1-c1c(OC(=O)C(C)(C)C)n2n(c1=O)CCOCC2 [Pinoxaden, pinoxaden]: 3%
CCCC(=NOCC)C1=C(O)CC(C2CCCSC2)CC1=O (centres unmarked) [Cycloxydim, cycloxydim]: 0%
CC#Cc1ccc(C2=C(OC(=O)OC)C3CCC(C3)C2=O)c(OC)c1 (centres unmarked) [Compound Ic]: 20%

---

- System: Lolium multiflorum
- method_summary: Further glasshouse test versus other ACCase-inhibiting herbicides, Table B2-1
- Format: in vivo
- experimental_conditions: biotype W2027C; 240 g/ha; 21 days after application
- Description: Further tests were employed to test the efficacy of a compound of Formula I versus other ACCase-inhibiting herbicides. The five main targets were Lolium multiflorum, Eleusine indica, Digitaria insularis, Sorghum halepense and Echinochloa crus-galli. Collectively, the populations contained all the major target-site resistance mutations affecting ACCase herbicides. […]
Some compounds, each annotated with its measured visual damage.
measured_attribute: visual damage (%)

CCSC(C)CC1CC(=O)C(/C(CC)=N/OC/C=C/Cl)=C(O)C1 (centres unmarked) [Clethodim, clethodim]: 100
C#CCOC(=O)[C@@H](C)Oc1ccc(Oc2ncc(Cl)cc2F)cc1 [Clodinafop-propargyl, clodinafop-propargyl]: 0
CCCC(=NOCC)C1=C(O)CC(C2CCCSC2)CC1=O (centres unmarked) [Cycloxydim, cycloxydim]: 50
CCc1cc(C)cc(CC)c1-c1c(OC(=O)C(C)(C)C)n2n(c1=O)CCOCC2 [Pinoxaden, pinoxaden]: 100
CC#Cc1ccc(C2=C(OC(=O)OC)C3CCC(C3)C2=O)c(OC)c1 (centres unmarked) [Compound Ic]: 100
